- test.target: CofC (nano-DSF)
- Construct: N-terminal His6, E. coli; Results place the test beside MycB3-CofC, Discussion names M. rhizoxinica
- protocol.text: nano-DSF
- experimental.conditions: GPPG co-purified with the enzyme may be present
endpoint: Kd

Nc1nc2c(ncn2[C@@H]2O[C@H](COP(=O)(O)OP(=O)(O)OP(=O)(O)O)[C@@H](O)[C@H]2O)c(=O)[nH]1 : < 20 µM

Entry source: paper PMC8764529
